Experiment: A549 cell viability effects, profiling panel, calcein-AM fluorescence, 48 h, basal (AID 1162); note: test concentration not given here
Conditions: higher = more signal
A collection of compounds and their measured z-score
Reply: number alone, nothing else.

Some solved entries appear below for comparison.
compound: CC(C)(C)OC(=O)CC[C@]1(C(=O)N2CCCCC2)COC(c2ccc(OCCCO)cc2)=N1
z-score: -0.34
--
compound: C=C(/C(=C/C[C@H](OC(=O)c1ccncc1)c1ccccc1OCCO)c1cnc2ccccc2c1)C(C)C
z-score: 0.0894
--
compound: O=C(O)[C@H]1C[C@H]2C(=O)N[C@@H](Cc3ccccc3)C(=O)N2[C@H]1c1cccc(OCCO)c1
z-score: 1.11
--
compound: [N-]=[N+]=NCc1ccccc1[C@H]1OC(c2ccc(OCCCO)cc2)=N[C@@]1(CCS(=O)(=O)c1ccccc1)C(=O)NCc1ccccc1
z-score: 2.47
--
compound: CCCC=C(CCC)[C@@H](NC(=O)CCc1ccccc1)c1ccc(C(F)(F)F)cc1
z-score: -0.894

Incoming: So what's the measured z-score for this one? CCOC(=O)C[C@H]1[C@H](OC(=O)c2ccc(-c3ccccc3)cc2)[C@@H](NC(=O)CC(C)C)c2cc(OCCCO)ccc2N1C(=O)c1ccccc1
Outgoing: -0.426

Incoming: So what's the measured z-score for this one? COc1ccc([Si](C)(C)[C@H]2[C@H](CCO)O[C@@]3(C(=O)N(Cc4ccc(N5C(=O)c6ccccc6Oc6ccccc65)cc4)c4ccccc43)[C@@H]2C)cc1
Outgoing: -0.573

Incoming: So what's the measured z-score for this one? COC(=O)C1N=C(c2ccc(OCCCO)cc2)N(c2ccccc2)O1 (stereo not drawn)
Outgoing: 0.893
